Tested on: HeLa
RUN_DESCRIPTION: Proliferation assay (crystal violet), HeLa
Type: cell-based
STUDY_CONDITIONS: Homo sapiens, HeLa, 96 h, HeLa cells; 4 days incubation; crystal violet staining; read-out: IC50 inhibition of proliferation, HeLa
pIC50: −log10 of the molar value.

ITEM_SMILES	pIC50
Cc1nsc(Nc2cnc3ccccc3n2)c1C(=O)Nc1ccc(C(=O)O)cc1	< 5.00
COC(=O)c1cc(NC(=O)c2c(C)nsc2Nc2cnc3ccccc3n2)cc(C(=O)OC)c1	< 5.00
Cc1nsc(Nc2cc(C#N)ccn2)c1C(=O)Nc1ccc(OCCC(=O)OC(C)(C)C)nc1	< 5.00
